Test: yeast display, Sf9 membrane polyspecificity reagent, FACS + sequencing; frameworks hold sequencing errors

primary-sequence	polyreactivity (PSR sort gate)
QVQLVESGRGIVQAGGSLRLSCAASGRIFRVNAMGWYRQAPGKERELVATISYSGGSTYADSVKGRFTISRDNAKNTVYLQMNSLKPEDTAVYYCAARPYYRYYRYPYGYWGQGTQVTVSS	high polyreactivity
QVQLVESGGGLVQAGGSLRLSCAASGFTLKYNTMGWYRQAPGKERELVAAITSSGVSTYYSDSVKGRFTISRDNAKNTVYLQMNSLKPEDTAVYYCNARERYSYWGQGTQVTVSS	high polyreactivity

----------
Experiment: yeast display, Sf9 membrane polyspecificity reagent, FACS + sequencing; frameworks hold sequencing errors
measured-endpoint: polyreactivity (PSR sort gate)

primary-sequence	polyreactivity (PSR sort gate)
QVHLVESGGGLVQAGGSLRLSCAASGRIFAKNAMGWYRQAPGKERELVAAINHSGGSTYYADSVKGRFTISRDYAKNTVYLQMNSLNPEDTAVYYCDARGLTTRSPFYYWGQGTQVTVSS	high polyreactivity
QVQLVESGGGLVQAGGSLRLSCAASGSIVSVYAMGWSRQAPGKEREWVAAISGRGGRTYYADSVKGRFTISRDNAKNTVYLQMNSLKPVDTAVYYCAARYPRYRYVEYGYNYWGQGTQVTVSS	high polyreactivity
QVQLVESGGGLVRAGGSLRLSCAASGSTFDINAMGWYRQAPGKERELVASITFSGGSTYYADSVKGRFTISRDNAKNTVYLQMNSLKPEDTAVYYCNKDEPQFSSYLYSFYPGYDYWGQGTQVTVSS	low polyreactivity
QVQLVESGGGLVQAGVSLRLSCAASGRTFYRYVMGWYRQAPGKERELVAAITPGGSTYADSVKGRFTISRDNAKNTVYLQMNSLKPEDTAVYFCNKRKASSSGYNYWGQGTQVTVSS	low polyreactivity
QVQLEESGGGLVQAGGRLRLSCAASGSIFYVYAMGWYRQAPGKERELVASINKSGGSTYFADSVKGRFTISRDNAKNTVYLQMNSLKPEDTAVYYCAARTGWPRVGFQYPAHVGFDYWGQGTQVTVSS	low polyreactivity

Param item = "QVQLVESGGGLVQAGGSLRLSCAASGYIFAWNAMGWYRQAPGKERQLVAAIRSSSGRTYYADSVKGRFTISRDNAKNTVYLLMNSLKPEDTAVYYCAASYAGGAVYYKYYSWGQGTQVTVSS" ; retrieve measured polyreactivity (PSR sort gate). high polyreactivity

Repeat with "QVQLVESGGGLVQAAGSLRLSCAASGSTFTLNAMGWNRQAPGKERELVAAITSGGRTKYADSVKGRFTISRDNAKNTVYLQMNSLKPEDTAVYYCAATFAGGYGYWGQGTQVTVSS" high polyreactivity

Repeat with "QVQLVESGGGLVQAGGSLRLSCAASGIIFSYNAMGWYRQAPGKERELVAANNSSGGSTNYADSVKGRFTISRDNAKNTVYLQMNSLKPEDTAVYYCAARDATYYGVWRYYGIDDYWGQGTQVTVSS" low polyreactivity

Repeat with "QVQLVESGGGLVQAGGSLRLSCAPSGLIFGRYAMGWYRQAPGKERELVAAISSSGVRTYYADSVKGRFTISRDNAKNTVYLQMNSLKPEDTAVYYCAAAYWSSREDTVIKRYYWGQGTQVTVSS" high polyreactivity

Repeat with "QVQLVESGGGLVQAGGSLRLSCAASGRTFFIYAMGWYRQAPGKERELVAAISNGGSTNYADSVKGRFTISRDNAKNPVYLQLNSLKPEDTAVYYCAAQYIGNLRGVFHYEFDWGQGTQVSVSS" high polyreactivity

Repeat with "QLQLVESVGGLVQAGGSLRLSCAGSGRIFGRSAMGWYTHAPGKHRALVAAISRSGGSTYYADSVKGRVTISRDKAKNTVYLQMYSLKPEDTAVYNCNRRYITYNDDYWGQGTQVTVSS" high polyreactivity
